B1: Azoarcus group I ribozyme (parent)
chain: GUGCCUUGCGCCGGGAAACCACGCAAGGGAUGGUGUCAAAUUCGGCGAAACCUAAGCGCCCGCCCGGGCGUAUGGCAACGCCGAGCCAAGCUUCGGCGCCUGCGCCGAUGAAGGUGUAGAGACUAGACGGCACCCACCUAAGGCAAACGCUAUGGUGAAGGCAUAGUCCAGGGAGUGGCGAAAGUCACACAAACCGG

Variants of: B1
Procedure text: reverse-splicing fitness (ratio to wild type); higher = more active; in vitro selection; Mg2+ level not given
# if value of reverse-splicing fitness reaches 0.01, tag Fulfilled; if it stays below, tag Not fulfilled

As a guide, the following entries are already answered.
{"Mutation notation": "A120C A145C C150A C169A U176G", "Category label": "Not fulfilled"}
{"Mutation notation": "A111U C150U U176C", "Category label": "Fulfilled"}
{"Mutation notation": "A111U A145C C150U U176C", "Category label": "Fulfilled"}
{"Mutation notation": "C82A A111U A145U C150A U176A", "Category label": "Fulfilled"}
{"Mutation notation": "C82A A111C A120C A145C C150G U176A", "Category label": "Not fulfilled"}

Reported reverse-splicing fitness at or above 0.01? C82A A111G A120G A145G C150U C169U Fulfilled

Reported reverse-splicing fitness at or above 0.01? A111U A145G C150G C169G U176G Not fulfilled

Reported reverse-splicing fitness at or above 0.01? A120U C169U U176C Fulfilled

Reported reverse-splicing fitness at or above 0.01? C82U A111G A120U C150G U176C Not fulfilled

Reported reverse-splicing fitness at or above 0.01? C82U A120G A145U U176A Fulfilled

Reported reverse-splicing fitness at or above 0.01? C82A A111G A120C C169U U176C Fulfilled

Reported reverse-splicing fitness at or above 0.01? C82G A111U A120U A145U C150U C169G U176G Not fulfilled

Reported reverse-splicing fitness at or above 0.01? C82U A111G A120C A145C C150U C169G Not fulfilled

Reported reverse-splicing fitness at or above 0.01? C82G A111U A120C C150G U176A Not fulfilled

Reported reverse-splicing fitness at or above 0.01? C82A A120C C150U U176G Fulfilled

Reported reverse-splicing fitness at or above 0.01? C82G A111G A120C A145C C150A C169A U176G Not fulfilled

Reported reverse-splicing fitness at or above 0.01? C82U A111U A145G C150G C169U U176A Fulfilled

Reported reverse-splicing fitness at or above 0.01? A111U A145G C169G Fulfilled

Reported reverse-splicing fitness at or above 0.01? C82G A111U A120G A145C C150U U176G Not fulfilled

Reported reverse-splicing fitness at or above 0.01? C82A A111G C150U C169G U176G Not fulfilled

Reported reverse-splicing fitness at or above 0.01? A111U A145U C150U C169A Fulfilled

Reported reverse-splicing fitness at or above 0.01? A111U A120U C150G C169G U176C Not fulfilled

Where do the numbers come from? From the RNAGym collection of RNA variant scans (doi:10.1093/molbev/msab373).
